- Tgt: mouse TMEM16A mutant T518A (Mus musculus, UniProt Q8BHY3, T518A)
- Construct: expressed in transfected cells; host or cells: HEK293T
- Sequence (Q8BHY3 1-960 T518A): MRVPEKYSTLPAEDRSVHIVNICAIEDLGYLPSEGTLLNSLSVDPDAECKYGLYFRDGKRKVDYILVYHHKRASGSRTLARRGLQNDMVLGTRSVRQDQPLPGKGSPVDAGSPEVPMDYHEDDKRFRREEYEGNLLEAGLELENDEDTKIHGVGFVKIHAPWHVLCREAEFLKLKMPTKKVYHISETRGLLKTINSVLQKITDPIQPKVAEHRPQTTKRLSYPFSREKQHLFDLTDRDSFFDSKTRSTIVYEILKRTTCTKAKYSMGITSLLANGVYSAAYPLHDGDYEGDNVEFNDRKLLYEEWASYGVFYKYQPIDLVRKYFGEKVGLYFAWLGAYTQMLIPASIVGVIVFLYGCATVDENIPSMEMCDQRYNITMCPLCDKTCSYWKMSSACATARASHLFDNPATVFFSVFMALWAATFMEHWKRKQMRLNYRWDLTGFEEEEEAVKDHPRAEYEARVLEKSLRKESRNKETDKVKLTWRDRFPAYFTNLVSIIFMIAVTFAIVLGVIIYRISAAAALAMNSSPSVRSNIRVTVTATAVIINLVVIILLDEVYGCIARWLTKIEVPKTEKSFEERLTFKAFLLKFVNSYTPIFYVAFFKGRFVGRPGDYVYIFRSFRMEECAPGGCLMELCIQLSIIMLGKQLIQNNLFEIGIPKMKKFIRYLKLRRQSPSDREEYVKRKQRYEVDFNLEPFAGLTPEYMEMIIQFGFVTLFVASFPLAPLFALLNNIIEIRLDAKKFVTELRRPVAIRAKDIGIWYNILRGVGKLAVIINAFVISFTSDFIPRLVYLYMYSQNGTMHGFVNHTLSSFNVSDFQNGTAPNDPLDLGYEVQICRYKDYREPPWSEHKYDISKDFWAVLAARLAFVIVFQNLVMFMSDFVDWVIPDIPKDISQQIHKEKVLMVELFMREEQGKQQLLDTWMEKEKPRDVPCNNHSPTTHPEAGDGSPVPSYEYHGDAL
- Run description: Inside-out patch recording of 1PBC block, mutant T518A
- Assay type: cell-based
- Test conditions: T518A; V -40 mV
Test readout: IC50 (µM)
Response body: numeric value in µM, unit text excluded.

Exercise: So what does the record say about IC50 for N#Cc1c(C(F)(F)F)cc(O)n2c1nc1ccccc12 [1PBC] ?
Solution: 9.5
